Target: IKZF1 (Homo sapiens (Human), UniProt Q13422+Q96SW2)
Sequence (Q13422 whole entry): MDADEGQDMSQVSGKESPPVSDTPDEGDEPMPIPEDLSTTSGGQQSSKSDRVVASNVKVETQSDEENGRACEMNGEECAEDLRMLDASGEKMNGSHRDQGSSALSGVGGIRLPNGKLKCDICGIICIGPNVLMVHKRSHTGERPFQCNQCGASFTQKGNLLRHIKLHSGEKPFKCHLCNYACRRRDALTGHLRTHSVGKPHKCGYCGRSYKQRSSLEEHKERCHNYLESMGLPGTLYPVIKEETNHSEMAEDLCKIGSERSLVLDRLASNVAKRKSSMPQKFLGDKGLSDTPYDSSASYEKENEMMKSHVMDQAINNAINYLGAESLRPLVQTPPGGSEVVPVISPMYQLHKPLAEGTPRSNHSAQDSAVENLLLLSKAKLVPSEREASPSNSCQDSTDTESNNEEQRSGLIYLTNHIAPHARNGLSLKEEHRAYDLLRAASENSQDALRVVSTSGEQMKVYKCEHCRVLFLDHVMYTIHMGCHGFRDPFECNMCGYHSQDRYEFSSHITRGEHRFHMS
Sequence (Q96SW2 whole entry): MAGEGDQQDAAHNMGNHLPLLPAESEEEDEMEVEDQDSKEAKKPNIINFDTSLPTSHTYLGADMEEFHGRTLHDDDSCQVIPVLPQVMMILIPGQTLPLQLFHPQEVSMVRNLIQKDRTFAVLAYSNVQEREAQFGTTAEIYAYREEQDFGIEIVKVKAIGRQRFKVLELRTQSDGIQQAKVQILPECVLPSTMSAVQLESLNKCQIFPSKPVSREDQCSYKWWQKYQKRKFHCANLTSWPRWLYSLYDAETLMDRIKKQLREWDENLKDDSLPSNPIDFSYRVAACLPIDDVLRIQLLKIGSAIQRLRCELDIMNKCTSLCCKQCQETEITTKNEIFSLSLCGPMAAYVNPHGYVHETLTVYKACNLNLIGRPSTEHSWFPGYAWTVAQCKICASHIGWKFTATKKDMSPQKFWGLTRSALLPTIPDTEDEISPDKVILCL
Sequence (Q16531 whole entry partner): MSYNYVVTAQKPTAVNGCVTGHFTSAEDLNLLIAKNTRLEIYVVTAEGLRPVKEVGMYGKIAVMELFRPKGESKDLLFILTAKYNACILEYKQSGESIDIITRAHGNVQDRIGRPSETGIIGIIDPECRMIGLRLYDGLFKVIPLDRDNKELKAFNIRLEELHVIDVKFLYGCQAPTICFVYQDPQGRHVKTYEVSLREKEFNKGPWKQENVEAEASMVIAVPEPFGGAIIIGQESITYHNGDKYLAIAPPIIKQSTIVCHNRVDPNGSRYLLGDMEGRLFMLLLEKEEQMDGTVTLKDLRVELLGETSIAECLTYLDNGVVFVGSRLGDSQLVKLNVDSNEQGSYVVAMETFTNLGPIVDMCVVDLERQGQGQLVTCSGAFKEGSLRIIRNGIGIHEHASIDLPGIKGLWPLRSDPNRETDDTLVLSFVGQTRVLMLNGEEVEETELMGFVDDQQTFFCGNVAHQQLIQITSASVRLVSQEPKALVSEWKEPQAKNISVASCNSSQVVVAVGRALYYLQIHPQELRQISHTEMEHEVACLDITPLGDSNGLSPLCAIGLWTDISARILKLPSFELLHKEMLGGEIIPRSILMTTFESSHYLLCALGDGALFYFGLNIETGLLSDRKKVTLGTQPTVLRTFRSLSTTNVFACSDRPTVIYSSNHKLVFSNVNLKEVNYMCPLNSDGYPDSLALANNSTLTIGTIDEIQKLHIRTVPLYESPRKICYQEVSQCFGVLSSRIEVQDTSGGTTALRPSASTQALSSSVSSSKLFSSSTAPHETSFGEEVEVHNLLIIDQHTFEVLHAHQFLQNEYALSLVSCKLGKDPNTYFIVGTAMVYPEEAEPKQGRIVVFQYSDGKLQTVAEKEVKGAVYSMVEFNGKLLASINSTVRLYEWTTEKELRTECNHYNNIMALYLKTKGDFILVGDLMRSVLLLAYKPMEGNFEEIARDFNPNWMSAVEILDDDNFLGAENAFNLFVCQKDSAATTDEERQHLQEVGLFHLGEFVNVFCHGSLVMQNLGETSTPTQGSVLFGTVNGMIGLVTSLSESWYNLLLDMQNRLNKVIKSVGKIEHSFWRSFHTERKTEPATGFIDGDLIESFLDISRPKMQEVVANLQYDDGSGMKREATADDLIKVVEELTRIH
Experiment: IKZF1 HiBit Assay (HEK293T Flp-in-HiBiT-IKZF1 stable cell line)
Format: cell-based
Settings: HEK-293T; HEK293T Flp-in-HiBiT-IKZF1 cells, 6 hrs; read-out: IKZF1 HiBit degradation Dmax
Provide the reported Dmax of each item.

Enquiry: Item under review: O=C1CC[C@H](N2Cc3c(ccc4c3OCC43CCN(Cc4ccc5[nH]ncc5c4)CC3(F)F)C2=O)C(=O)N1 (stereo partly drawn) . Reported Dmax?
Return: < 20%

Enquiry: Given the compound O=C1CC[C@H](N2Cc3c(ccc4c3OCC43CCN(Cc4cccc5[nH]ncc45)CC3(F)F)C2=O)C(=O)N1 (stereo partly drawn) , what is its reported Dmax?
Return: 20 to 40%

Enquiry: Form field: reported Dmax of [2H]C([2H])(c1cccc(-c2cnn(C(F)F)c2)c1)N1CCC2(CC1)COc1c2ccc2c1CN([C@H]1CCC(=O)NC1=O)C2=O
Return: < 20%

Enquiry: For the compound O=C1CC[C@H](N2Cc3c(ccc4c3OCC43CCN(Cc4cn(-c5ccc(Cl)cc5)nc4C(F)(F)F)CC3)C2=O)C(=O)N1 , what Dmax is on record?
Return: < 20%

Enquiry: Please look up its Dmax: O=C1CC[C@H](N2Cc3c(ccc4c3OCC43CCN(Cc4cccc(-c5cnn(C6COC6)c5)c4)CC3(F)F)C2=O)C(=O)N1 (stereo partly drawn)
Return: < 20%

Enquiry: What value of Dmax has been reported for the following compound? Cn1cc(-c2cccc(CN3CC[C@]4(COc5c4ccc4c5CN([C@H]5CCC(=O)NC5=O)C4=O)C(F)(F)C3)c2)cn1
Return: < 20%

* * *

Biological target: IKZF2 (Homo sapiens (Human), UniProt Q96SW2+Q9UKS7)
Sequence (Q9UKS7 whole entry): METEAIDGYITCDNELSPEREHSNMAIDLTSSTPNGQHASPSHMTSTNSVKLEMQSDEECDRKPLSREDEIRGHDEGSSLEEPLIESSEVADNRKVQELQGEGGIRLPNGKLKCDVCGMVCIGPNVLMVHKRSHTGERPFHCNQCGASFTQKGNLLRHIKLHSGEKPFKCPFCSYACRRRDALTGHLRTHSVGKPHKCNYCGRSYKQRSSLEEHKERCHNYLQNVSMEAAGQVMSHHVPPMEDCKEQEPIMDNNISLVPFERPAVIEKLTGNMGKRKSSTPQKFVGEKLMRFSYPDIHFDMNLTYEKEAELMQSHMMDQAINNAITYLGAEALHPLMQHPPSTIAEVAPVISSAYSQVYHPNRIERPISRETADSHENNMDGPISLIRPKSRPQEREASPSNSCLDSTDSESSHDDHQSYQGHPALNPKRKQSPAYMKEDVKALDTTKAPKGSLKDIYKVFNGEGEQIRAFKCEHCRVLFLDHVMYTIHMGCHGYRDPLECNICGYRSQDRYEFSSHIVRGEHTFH
Sequence (Q96SW2 whole entry): as the sequence (Q96SW2 whole entry) above
Sequence (Q16531 whole entry partner): as the sequence (Q16531 whole entry partner) above
Experiment: IKZF2 HiBiT Assay (Jurkat-IKZF2-HiBiT cell line)
Format: cell-based
Settings: Jurkat-IKZF2-HiBiT cells, 24 hours; read-out: HiBit assay degradation analysis Dmax
measurement.label: Dmax

Enquiry: Consider the molecule O=C1CCC(N2Cc3c(ccc4c3OCC43CCN(Cc4cccc(NS(=O)(=O)c5ccccc5)c4)CC3)C2=O)C(=O)N1 (stereo not shown) and give its measured Dmax.
Return: < 40%

Enquiry: Reported Dmax for O=C1CCC(N2Cc3c(ccc4c3OCC43CCN(Cc4cccc(-c5cnn(C6CCOCC6)c5)c4)CC3)C2=O)C(=O)N1 (stereo not shown) : what is it?
Return: 60 to 80%

Enquiry: Reported Dmax for O=C1CCC(N2Cc3c(ccc4c3OCC43CCN(Cc4ccn(-c5ccc(F)cc5)n4)CC3)C2=O)C(=O)N1 (stereo not shown) : what is it?
Return: < 40%

Enquiry: Requested field: Dmax. Item: O=C1CCC(N2Cc3c(ccc4c3OCC43CCN(Cc4ccccc4)CC3)C2=O)C(=O)N1 (stereo not shown)
Return: 40 to 60%

Enquiry: Data request, read-out Dmax, for O=C1CCC(N2Cc3c(ccc4c3OCC43CCN(Cc4nn(CC5COCCO5)c5ccccc45)CC3)C2=O)C(=O)N1 (stereo not shown)
Return: 60 to 80%

Enquiry: Which Dmax reading was recorded for the molecule O=C1CC[C@H](N2Cc3c(ccc4c3OCC43CCN(Cc4ccc5c(c4)NC(=O)CC5)CC3)C2=O)C(=O)N1 ?
Return: 60 to 80%

Enquiry: Suppose we examine the molecule O=C1CCC(N2Cc3c(ccc4c3OCC43CCN(Cc4ccc5ccoc5c4)CC3)C2=O)C(=O)N1 (stereo not shown) ; what Dmax value has been reported?
Return: 60 to 80%

* * *

Molecular target: IKZF2 (Homo sapiens (Human), UniProt Q96SW2+Q9UKS7)
Test: IKZF2 HiBiT Assay (Jurkat-IKZF2-HiBiT cell line)
Assay type: cell-based
Details: Jurkat-IKZF2-HiBiT cells, 24 hours; read-out: HiBit assay degradation analysis DC50
measurement.label: DC50

Enquiry: DC50 for O=C1CCC(N2Cc3c(ccc4c3OCC43CCN(Cc4cccc5[nH]cc(Cl)c45)CC3)C2=O)C(=O)N1 (centres unmarked) [Compound A141] ?
Return: < 50 nM

Enquiry: Look at this compound and give its reported DC50. CCn1cc(CN2CCC3(CC2)COc2c3ccc3c2CN(C2CCC(=O)NC2=O)C3=O)cn1 (centres unmarked) [Compound A229]
Return: > 500 nM

Enquiry: Consider the compound shown here: CN(C)S(=O)(=O)c1ccc(CN2CCC3(CC2)COc2c3ccc3c2CN(C2CCC(=O)NC2=O)C3=O)cc1 (centres unmarked) [Compound A210] What is its recorded DC50?
Return: > 500 nM

Enquiry: Give the measured DC50 of O=C1CC[C@H](N2Cc3c(ccc4c3OCC43CCN(Cc4ccccc4)CC3)C2=O)C(=O)N1 [Compound A317] .
Return: 200 to 500 nM

Enquiry: Requested field: DC50. Item: O=C1CCC(N2Cc3c(ccc4c3OCC43CCN(C[C@H]4C[C@H](Oc5ccc(F)cc5)C4)CC3)C2=O)C(=O)N1 (some centres unmarked) [Compound A351]
Return: > 500 nM

Enquiry: Returns the measured DC50 for the input compound. Input: O=C1CCC(N2Cc3c(ccc4c3OCC43CCN(Cc4cccc(-c5cnn(C6CCOCC6)c5)c4)CC3)C2=O)C(=O)N1 (centres unmarked) [Compound A147]
Return: < 50 nM

Enquiry: // DC50 lookup, key: O=C1CCC(N2Cc3c(ccc4c3OCC43CCN(Cc4cccc(-c5ccncc5)c4)CC3)C2=O)C(=O)N1 (centres unmarked) [Compound A133]
Return: < 50 nM

Enquiry: Look up DC50: O=C1CCC(N2Cc3c(ccc4c3OCC43CCN(Cc4ccc5c(c4)NC(=O)C5)CC3)C2=O)C(=O)N1 (centres unmarked) [Compound A131]
Return: 50 to 200 nM

Enquiry: Given the compound O=C1CCC(N2Cc3c(ccc4c3OCC43CCN(Cc4cccc5sccc45)CC3)C2=O)C(=O)N1 (centres unmarked) [Compound A186] , what is its reported DC50?
Return: < 50 nM

Enquiry: # DC50 lookup, item O=C1CCC(N2Cc3c(ccc4c3OCC43CCN(Cc4cccc(Br)c4)CC3)C2=O)C(=O)N1 (centres unmarked) [Compound A91]
Return: < 50 nM

Enquiry: Give the measured DC50 of O=C1CCC(N2Cc3c(ccc4c3OCC43CCN(Cc4ccc(C(F)F)cc4)CC3)C2=O)C(=O)N1 (centres unmarked) [Compound A3] .
Return: > 500 nM

Enquiry: What value of measured DC50 is listed for O=C1CC[C@H](N2Cc3c(ccc4c3OCC43CCN(Cc4cnn(-c5ccc(C(F)(F)F)cc5)c4)CC3)C2=O)C(=O)N1 [Compound A360] ?
Return: < 50 nM

Enquiry: Which DC50 reading was recorded for the compound O=C1CCC(N2Cc3c(ccc4c3OCC43CCN(Cc4cccc(-c5cnn(C6COC6)c5)c4)CC3)C2=O)C(=O)N1 (centres unmarked) [Compound A161] ?
Return: < 50 nM

Enquiry: Bench note: what DC50 did COc1cc(CN2CCC3(CC2)COc2c3ccc3c2CN([C@H]2CCC(=O)NC2=O)C3=O)cc(-c2cnn(C3COC3)c2)c1 [Compound A277] show?
Return: < 50 nM

* * *

Give measured DC50 for each item. Keep answers brief.
Biological target: IKZF1 (Homo sapiens (Human), UniProt Q13422+Q96SW2)
Test: IKZF1 HiBit Assay (HEK293T Flp-in-HiBiT-IKZF1 stable cell line)
Assay type: cell-based
Details: HEK293T Flp-in-HiBiT-IKZF1 cells, 6 hrs; read-out: IKZF1 HiBit degradation DC50

Enquiry: Recorded DC50 of Cn1cc(-c2cccc(CN3CCC4(CC3)COc3c4ccc4c3CN([C@@H]3CCC(=O)NC3=O)C4=O)c2)cn1 , please.
Return: > 1000 nM

Enquiry: Consider the compound [2H]C([2H])([2H])n1cc(-c2cccc(CN3CCC4(CC3)COc3c4ccc4c3CN([C@H]3CCC(=O)NC3=O)C4=O)c2)cn1 and give its measured DC50.
Return: > 1000 nM

Enquiry: Looking for the measured DC50 of Cn1ncc2c(CN3CCC4(COc5c4ccc4c5CN([C@H]5CCC(=O)NC5=O)C4=O)C(F)(F)C3)cccc21 (stereo partly drawn) , can you help?
Return: > 1000 nM

* * *

Molecular target: IKZF2 (Homo sapiens (Human), UniProt Q96SW2+Q9UKS7)
Assay: IKZF2 HiBiT Assay (Jurkat-IKZF2-HiBiT cell line)
Type: cell-based
Details: Jurkat-IKZF2-HiBiT cells, 24 hours; read-out: HiBit assay degradation analysis DC50
Record form. Attribute: DC50. Fill in for each entry.

Enquiry: // query DC50 value for entry O=C1CCC(N2Cc3c(ccc4c3OCC43CCN(Cc4ccccc4Cn4cccn4)CC3)C2=O)C(=O)N1 (stereo not drawn)
Return: > 500 nM

Enquiry: Reported DC50, molecule O=C1CCC(N2Cc3c(ccc4c3OCC43CCN(Cc4cccc5cccnc45)CC3)C2=O)C(=O)N1 (stereo not drawn) : ____
Return: 50 to 200 nM

Enquiry: DC50 lookup needed for O=C1CCC(N2Cc3c(ccc4c3OCC43CCN(CC4CCCCC4)CC3)C2=O)C(=O)N1 (stereo not drawn) , thanks.
Return: > 500 nM

Enquiry: // query DC50 value for entry CCOc1cc(CN2CCC3(CC2)COc2c3ccc3c2CN(C2CCC(=O)NC2=O)C3=O)ccn1 (stereo not drawn)
Return: > 500 nM

Enquiry: What DC50 value was documented for this molecule, O=C1CCC(N2Cc3c(ccc4c3OCC43CCN(Cc4c(F)ccc5[nH]ccc45)CC3)C2=O)C(=O)N1 (stereo not drawn) ?
Return: < 50 nM

Enquiry: Bench note: what DC50 did O=C1CCC(N2Cc3c(ccc4c3OCC43CCN(Cc4cc(C(F)(F)F)cc5[nH]ccc45)CC3)C2=O)C(=O)N1 (stereo not drawn) show?
Return: 50 to 200 nM

Enquiry: Field request: DC50 | item: O=C1CCC(N2Cc3c(ccc4c3OCC43CCN(Cc4ccc(F)c5ccccc45)CC3)C2=O)C(=O)N1 (stereo not drawn)
Return: 50 to 200 nM

Enquiry: Look up DC50 for this molecule: O=C1CCC(N2Cc3c(ccc4c3OCC43CCN(Cc4cc5ccccc5s4)CC3)C2=O)C(=O)N1 (stereo not drawn)
Return: > 500 nM

Enquiry: Which DC50 value belongs to COc1ccc(C(=O)Nc2cccc(CN3CCC4(CC3)OCc3c4ccc4c3CN(C3CCC(=O)NC3=O)C4=O)c2)cc1 (stereo not drawn) ?
Return: < 50 nM

Enquiry: # query: DC50 of entry O=C1CCC(N2Cc3c(ccc4c3OCC43CCN(Cc4ccc5nccnc5c4)CC3)C2=O)C(=O)N1 (stereo not drawn)
Return: > 500 nM

Enquiry: Field request: DC50 | item: O=C1CCC(N2Cc3c(ccc4c3OCC43CCN(Cc4ccccc4Oc4ccccc4)CC3)C2=O)C(=O)N1 (stereo not drawn)
Return: > 500 nM

Enquiry: Can you share its DC50? I mean this molecule: O=C1CCC(N2Cc3c(ccc4c3OCC43CCN(Cc4ccc(-n5cccn5)cc4)CC3)C2=O)C(=O)N1 (stereo not drawn)
Return: > 500 nM

Enquiry: Return reported DC50; argument: O=C1CCC(N2Cc3c(ccc4c3OCC43CCN(Cc4ccn(-c5ccccc5F)n4)CC3)C2=O)C(=O)N1 (stereo not drawn)
Return: > 500 nM

Enquiry: I'd like to know its DC50. The molecule in question is O=C1CCC(N2Cc3c(ccc4c3OCC43CCN(CC4(c5ccccc5)CC4)CC3)C2=O)C(=O)N1 (stereo not drawn)
Return: > 500 nM

Enquiry: Can you look up the measured DC50 of O=C1CCC(N2Cc3c(ccc4c3OCC43CCN(Cc4cccc5cn[nH]c45)CC3)C2=O)C(=O)N1 (stereo not drawn) for me?
Return: < 50 nM
